Tested on: human acute myeloid leukemia cell line MV-4-11
Assay: Cytostatic activity on leukemia cell line MV-4-11 (WST-1)
Format: cell-based
Settings: 72 hours, MV-4-11 cells
Procedure: The cytostatic rates of a test compound on human acute myeloid leukemia cell lines MV-4-11 and ML-1, and human chronic myeloid leukemia cell line K562 were determined in the following manner. Each cell was cultured using Roswell Park Memorial Institute's Medium (RPMI) 1640 (Gibco, Catalog No. 11875-093) containing 10% fetal bovine serum (Gibco, Catalog No. 10437-028) and 1% penicillin/streptomycin (1:1) (Gibco, Catalog No. 15140-122). […]
Known cytostatic rate MV-4-11 (%) (10 μmol/L) of a selection of molecules

>  <MOLECULE>
O=C(c1ccc(/C=C/c2n[nH]c3ccccc23)cc1)N1CCOCC1 [Compound 9]

>  <cytostatic rate MV-4-11 (%) (10 μmol/L)>
91

$$$$
>  <MOLECULE>
O=C(c1ccc(/C=C/c2n[nH]c3ccccc23)cc1)N1CCN(c2c(N3CCCCC3)c(=O)c2=O)CC1 [Compound 155]

>  <cytostatic rate MV-4-11 (%) (10 μmol/L)>
97

$$$$
>  <MOLECULE>
O=C(c1ccc(/C=C/c2n[nH]c3ccccc23)cc1)N1CCN(c2c(N3CCOCC3)c(=O)c2=O)CC1 [Compound 156]

>  <cytostatic rate MV-4-11 (%) (10 μmol/L)>
99

$$$$
>  <MOLECULE>
Cl.O=C(c1ccc(/C=C/c2n[nH]c3ccccc23)cc1)N1CCC2(CC1)OCCO2 [Compound 16]

>  <cytostatic rate MV-4-11 (%) (10 μmol/L)>
89

$$$$

###

Tested on: human acute myeloid leukemia cell line ML-1
Assay: Cytostatic activity on leukemia cell line ML-1 (WST-1)
Assay type: cell-based
Conditions: Homo sapiens, ML1; 10 μmol/L, 72 hours, ML-1 cells; read-out: cytostatic rate ML-1 (%) (10 μmol/L)
Where a name gives a salt, the structure may show the parent alone.
Quick rule: inhibition at 10 µM of at least 80% means Y, below that means N.

>  <MOLECULE>
CS(=O)(=O)Nc1cc(/C=C/c2n[nH]c3ccccc23)ccc1OCCN1CCOCC1

>  <TESTED_SYSTEM>
human acute myeloid leukemia cell line ML-1

>  <CATEGORY>
Y

$$$$
>  <MOLECULE>
O=C(c1ccc(/C=C/c2n[nH]c3ccccc23)cc1)N1CCN(CCO)CC1

>  <TESTED_SYSTEM>
human acute myeloid leukemia cell line ML-1

>  <CATEGORY>
Y

$$$$
>  <MOLECULE>
O=C(c1ccc(/C=C/c2n[nH]c3ccccc23)cc1)N1CCNCC1

>  <TESTED_SYSTEM>
human acute myeloid leukemia cell line ML-1

>  <CATEGORY>
N

$$$$
>  <MOLECULE>
CCN(CC)C(=O)c1ccc(/C=C/c2n[nH]c3ccccc23)cc1 [Compound 15, hydrochloride]

>  <TESTED_SYSTEM>
human acute myeloid leukemia cell line ML-1

>  <CATEGORY>
Y

$$$$

###

Tested on: human acute myeloid leukemia cell line ML-1
Assay: Cytostatic activity on leukemia cell line ML-1 (WST-1)
Type: cell-based
Settings: Homo sapiens, ML1; 10 μmol/L, 72 hours, ML-1 cells; read-out: cytostatic rate ML-1 (%) (10 μmol/L)
Where a name gives a salt, the structure may show the parent alone.
PROPERTY: inhibition at 10 µM (%)

>  <MOLECULE>
O=C1CN(C(=O)c2ccc(/C=C/c3n[nH]c4ccccc34)cc2)CCN1

>  <TESTED_SYSTEM>
human acute myeloid leukemia cell line ML-1

>  <PROPERTY>
inhibition at 10 µM

>  <VAL>
86

$$$$
>  <MOLECULE>
CC(C)(N)C(=O)N1CCN(C(=O)c2ccc(/C=C/c3n[nH]c4ccccc34)cc2)CC1 [Compound 131, dihydrochloride]

>  <TESTED_SYSTEM>
human acute myeloid leukemia cell line ML-1

>  <PROPERTY>
inhibition at 10 µM

>  <VAL>
85

$$$$
>  <MOLECULE>
CC(C)(O)C(=O)N1CCN(C(=O)c2ccc(/C=C/c3n[nH]c4ccccc34)cc2)CC1

>  <TESTED_SYSTEM>
human acute myeloid leukemia cell line ML-1

>  <PROPERTY>
inhibition at 10 µM

>  <VAL>
79

$$$$
>  <MOLECULE>
O=C(c1ccc(/C=C/c2n[nH]c3ccccc23)cc1)N1CCN(C(=O)N2CCOCC2)CC1

>  <TESTED_SYSTEM>
human acute myeloid leukemia cell line ML-1

>  <PROPERTY>
inhibition at 10 µM

>  <VAL>
83

$$$$
>  <MOLECULE>
O=C(c1ccc(/C=C/c2n[nH]c3ccccc23)cc1)N1CCN(C(=O)[C@@H]2CCCN2)CC1

>  <TESTED_SYSTEM>
human acute myeloid leukemia cell line ML-1

>  <PROPERTY>
inhibition at 10 µM

>  <VAL>
82

$$$$
>  <MOLECULE>
NC1CCN(C(=O)c2ccc(/C=C/c3n[nH]c4ccccc34)cc2)C1 (stereo not shown) [Compound 122, dihydrochloride]

>  <TESTED_SYSTEM>
human acute myeloid leukemia cell line ML-1

>  <PROPERTY>
inhibition at 10 µM

>  <VAL>
79

$$$$
>  <MOLECULE>
CC(C)(C)CC(=O)N1CCN(C(=O)c2ccc(/C=C/c3n[nH]c4ccccc34)cc2)CC1

>  <TESTED_SYSTEM>
human acute myeloid leukemia cell line ML-1

>  <PROPERTY>
inhibition at 10 µM

>  <VAL>
64

$$$$

###

Known cytostatic rate ML-1 (%) (10 μmol/L) of a selection of compounds
Tested on: human acute myeloid leukemia cell line ML-1
Test: Cytostatic activity on leukemia cell line ML-1 (WST-1)
Format: cell-based
Conditions: 72 hours, ML-1 cells
PROPERTY: cytostatic rate ML-1 (%) (10 μmol/L)

>  <COMPOUND>
Cl.O=C(c1ccc(/C=C/c2n[nH]c3ccccc23)cc1)N1CCC2(CC1)OCCO2 [Compound 16]

>  <VAL>
97%

$$$$
>  <COMPOUND>
O=C(c1ccc(/C=C/c2n[nH]c3ccccc23)cc1)N1CCOCC1 [Compound 9]

>  <VAL>
90%

$$$$
>  <COMPOUND>
O=C(c1ccc(/C=C/c2n[nH]c3ccccc23)cc1)N1CCN(c2c(N3CCCCC3)c(=O)c2=O)CC1 [Compound 155]

>  <VAL>
79%

$$$$
>  <COMPOUND>
O=C(c1ccc(/C=C/c2n[nH]c3ccccc23)cc1)N1CCN(c2c(N3CCOCC3)c(=O)c2=O)CC1 [Compound 156]

>  <VAL>
85%

$$$$

###

System: human acute myeloid leukemia cell line ML-1
Assay: Cytostatic activity on leukemia cell line ML-1 (WST-1)
Type: cell-based
Conditions: Homo sapiens, ML1; 10 μmol/L, 72 hours, ML-1 cells; read-out: cytostatic rate ML-1 (%) (10 μmol/L)
Known inhibition at 10 µM of a selection of molecules
PROPERTY: inhibition at 10 µM (%)

>  <SMILES_STR>
CS(=O)(=O)Nc1cccc(/C=C/c2n[nH]c3ccccc23)c1

>  <VAL>
77

$$$$
>  <SMILES_STR>
CNC(=O)c1ccc(/C=C/c2n[nH]c3ccccc23)cc1

>  <VAL>
84

$$$$
>  <SMILES_STR>
CC(C)(O)CC(=O)N1CCN(C(=O)c2ccc(/C=C/c3n[nH]c4ccccc34)cc2)CC1

>  <VAL>
79

$$$$

###

Test system: human acute myeloid leukemia cell line ML-1
Test: Cytostatic activity on leukemia cell line ML-1 (WST-1)
Assay type: cell-based
Settings: Homo sapiens, ML1; 10 μmol/L, 72 hours, ML-1 cells; read-out: cytostatic rate ML-1 (%) (10 μmol/L)
Structures can show the parent of a compound that is named as a salt.

>  <COMPOUND>
O=C(c1ccc(/C=C/c2n[nH]c3ccccc23)cc1)N1CCCNCC1 [Compound 85, dihydrochloride]

>  <TESTED_SYSTEM>
human acute myeloid leukemia cell line ML-1

>  <inhibition at 10 µM>
78%

$$$$
>  <COMPOUND>
CCOCC(=O)N1CCN(C(=O)c2ccc(/C=C/c3n[nH]c4ccccc34)cc2)CC1 [Compound 128]

>  <TESTED_SYSTEM>
human acute myeloid leukemia cell line ML-1

>  <inhibition at 10 µM>
79%

$$$$
>  <COMPOUND>
CC(C)(CO)C(=O)N1CCN(C(=O)c2ccc(/C=C/c3n[nH]c4ccccc34)cc2)CC1 [Compound 72]

>  <TESTED_SYSTEM>
human acute myeloid leukemia cell line ML-1

>  <inhibition at 10 µM>
80%

$$$$
>  <COMPOUND>
CC(C)C(=O)N1CCN(C(=O)c2ccc(/C=C/c3n[nH]c4ccccc34)cc2)CC1 [Compound 56]

>  <TESTED_SYSTEM>
human acute myeloid leukemia cell line ML-1

>  <inhibition at 10 µM>
78%

$$$$
